target: Cytochrome P450 2D6 (Homo sapiens) (UniProt P10635); assay: Cytochrome P450 Family 2 Subfamily D Member 6 (CYP2D6) small molecule antagonists: luciferase reporter qHTS assay (AID 1671196); details: P450-Glo CYP2D6 enzyme assay, luciferin luminescence, 1 h; series mostly up to 115 µM; further: nearly all actives have a fitted effect of over 50% in size
Sequence (P10635 whole entry, looked up): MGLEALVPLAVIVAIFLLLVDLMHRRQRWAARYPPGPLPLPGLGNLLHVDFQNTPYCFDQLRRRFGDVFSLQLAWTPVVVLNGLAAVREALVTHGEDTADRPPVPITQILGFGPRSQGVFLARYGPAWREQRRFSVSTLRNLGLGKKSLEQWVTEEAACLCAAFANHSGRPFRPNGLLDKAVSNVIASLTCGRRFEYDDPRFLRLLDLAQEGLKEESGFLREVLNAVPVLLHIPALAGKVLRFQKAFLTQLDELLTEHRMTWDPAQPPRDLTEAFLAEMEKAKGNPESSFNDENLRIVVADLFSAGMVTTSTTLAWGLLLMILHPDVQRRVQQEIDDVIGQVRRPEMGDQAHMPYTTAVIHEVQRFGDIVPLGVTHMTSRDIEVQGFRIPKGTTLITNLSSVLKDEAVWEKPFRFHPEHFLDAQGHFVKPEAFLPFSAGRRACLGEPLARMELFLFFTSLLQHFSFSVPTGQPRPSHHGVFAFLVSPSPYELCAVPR
Records with an inconclusive call do not appear. The source made the active and inactive calls. The call rests on the fitted dose curve; in most records, active means well fitted inhibition curve with a large enough effect in the repeat runs; inconclusive means weak or mixed curves; inactive means no such curve, though single readings can be large or run the other way.
Allowed answers: active, inactive

Examples from the recorded data:
| SMILES_REPR | LABEL_VALUE |
| --- | --- |
| O=S(=O)(NS(=O)(=O)C(F)(F)F)C(F)(F)F | active |
| CCc1cccc(C)c1N(C(=O)CCl)[C@@H](C)COC | inactive |

Switching to the query record.
Q) Recorded call for "COC(=O)/C=C(\C)OP(=O)(OC)OC" ?
A) active
